- MEASURED TARGET: T1, hIL-4Rα on cells (human, UniProt P24394 26-825)
- T1 sequence: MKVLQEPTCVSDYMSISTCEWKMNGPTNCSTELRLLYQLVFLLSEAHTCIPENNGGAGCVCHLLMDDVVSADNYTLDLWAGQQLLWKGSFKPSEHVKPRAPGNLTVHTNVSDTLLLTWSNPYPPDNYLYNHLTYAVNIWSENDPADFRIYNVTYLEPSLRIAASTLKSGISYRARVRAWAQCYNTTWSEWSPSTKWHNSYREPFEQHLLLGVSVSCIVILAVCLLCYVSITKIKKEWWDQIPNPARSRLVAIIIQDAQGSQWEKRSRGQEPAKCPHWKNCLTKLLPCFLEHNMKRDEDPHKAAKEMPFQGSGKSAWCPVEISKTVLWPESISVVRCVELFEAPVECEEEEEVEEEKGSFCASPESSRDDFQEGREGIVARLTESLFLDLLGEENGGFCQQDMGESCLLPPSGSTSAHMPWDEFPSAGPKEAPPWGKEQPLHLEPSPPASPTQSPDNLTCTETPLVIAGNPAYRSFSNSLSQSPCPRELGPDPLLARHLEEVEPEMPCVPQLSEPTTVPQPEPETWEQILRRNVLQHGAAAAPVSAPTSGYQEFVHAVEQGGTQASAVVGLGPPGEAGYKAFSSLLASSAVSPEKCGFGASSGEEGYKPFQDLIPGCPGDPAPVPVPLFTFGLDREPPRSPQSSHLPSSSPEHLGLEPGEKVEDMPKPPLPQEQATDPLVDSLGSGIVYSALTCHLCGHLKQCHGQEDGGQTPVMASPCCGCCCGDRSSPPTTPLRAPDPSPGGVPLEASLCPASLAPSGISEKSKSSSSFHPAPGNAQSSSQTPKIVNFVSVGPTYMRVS
- METHOD SUMMARY: cell-based or functional assay
Relative Inhibition of IL-4 induced TF-1 Proliferation IC50 overview

{"columns": ["BINDER", "RESULT"],
 "data": [
  ["Construct 45 (mAb494) (antibody, IgG4, V domains shown, VH/VL only) VH: EVQLVESGGGLEQPGGSLRLSCAGSGFTFRDFAMTWVRQAPGKGLEWVSSISGSGDGTYYADSVKGRFTISRDNSKNTLYLQMNSLRAEDTAVYYCAKDRVSITIRPRYYGLDVWGQGTTVTVSS VL: DIVMTQSPLSLPVTPGEPASISCTASQSLLYSIGYNYVDWYLQKSGQSPQLLIYLGNNRATGVPDRFSGSGSGTDFTLKISRVEAEDVGFYYCMQSLQTPYTFGQGTKLEIK", "1.68 relative to dupilumab"],
  ["Construct 29 (mAb437) (antibody, IgG4, V domains shown, VH/VL only) VH: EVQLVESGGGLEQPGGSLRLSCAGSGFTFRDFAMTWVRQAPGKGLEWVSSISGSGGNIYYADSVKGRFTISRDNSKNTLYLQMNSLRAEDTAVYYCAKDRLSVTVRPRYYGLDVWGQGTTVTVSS VL: DIVMTQSPLSLPVTPGEPASISCTSSQSLLYSIGYNYVDWYLQKSGQSPQLLIYLGNKRASGVPDRFSGSGSGTDFTLKISRVEAEDVGFYYCMQSLTSPYTFGQGTKLEIK", "0.486 relative to dupilumab"],
  ["Construct 46 (mAb501) (antibody, IgG4, V domains shown, VH/VL only) VH: EVQLVESGGGLEQPGGSLRLSCAGSGFTFRDSAMTWVRQAPGKGLEWVSSISGSGDGTYYADSVKGRFTISRDNSKNTLYLQMNSLRAEDTAVYYCAKDRLSIYIRPRYYGLDVWGQGTTVTVSS VL: DIVMTQSPLSLPVTPGEPASISCTSSQSLLYSIGYNYVDWYLQKSGQSPQLLIYLGNKRASGVPDRFSGSGSGTDFTLKISRVEAEDVGFYYCMQALQTPYTFGQGTKLEIK", "1.29 relative to dupilumab"],
  ["Construct 44 (mAb485) (antibody, IgG4, V domains shown, VH/VL only) VH: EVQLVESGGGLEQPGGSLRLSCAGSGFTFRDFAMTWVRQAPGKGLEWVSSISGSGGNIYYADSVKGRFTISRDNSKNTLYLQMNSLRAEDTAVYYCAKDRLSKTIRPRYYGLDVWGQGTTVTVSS VL: DIVMTQSPLSLPVTPGEPASISCRSTQSLLYSIGKNYVDWYLQKSGQSPQLLIYEGNNRASGVPDRFSGSGSGTDFTLKISRVEAEDVGFYYCMQSLTSPYTFGQGTKLEIK", "1.15 relative to dupilumab"]
]}

Okay, next one:
Query :: # get_value(readout='Relative Inhibition of IL-4 induced TF-1 Proliferation IC50', item= Construct 13 (mAb422) (antibody, IgG4, V domains shown, VH/VL only) VH: EVQLVESGGGLEQPGGSLRLSCAGSGFTFRDFAMTWVRQAPGKGLEWVSSVSGSGGNTYYADSVKGRFTISRDNSKNTLYLQMNSLRAEDTAVYYCAKDRLSVTVRPRYYGLDVWGQGTTVTVSS VL: DIVMTQSPLSLPVTPGEPASISCRSSQSVLYSIGYNYVDWYLQKSGQSPQLLIYLGNKRASGVPDRFSGSGSGTDFTLKISRVEAEDVGFYYCMQSLTSPYTFGQGTKLEIK )
Result :: 0.675 relative to dupilumab

Data credit: patent US20260193366A1
